biological target: PCSK9 (Homo sapiens, UniProt Q8NBP7); test: PCSK9/EGF(A) TR-FRET binding assay; details: TR-FRET; Table 8E, additional compounds; read-out: PCSK9/EGF(A) IC50
Sequence (Q8NBP7 153-692): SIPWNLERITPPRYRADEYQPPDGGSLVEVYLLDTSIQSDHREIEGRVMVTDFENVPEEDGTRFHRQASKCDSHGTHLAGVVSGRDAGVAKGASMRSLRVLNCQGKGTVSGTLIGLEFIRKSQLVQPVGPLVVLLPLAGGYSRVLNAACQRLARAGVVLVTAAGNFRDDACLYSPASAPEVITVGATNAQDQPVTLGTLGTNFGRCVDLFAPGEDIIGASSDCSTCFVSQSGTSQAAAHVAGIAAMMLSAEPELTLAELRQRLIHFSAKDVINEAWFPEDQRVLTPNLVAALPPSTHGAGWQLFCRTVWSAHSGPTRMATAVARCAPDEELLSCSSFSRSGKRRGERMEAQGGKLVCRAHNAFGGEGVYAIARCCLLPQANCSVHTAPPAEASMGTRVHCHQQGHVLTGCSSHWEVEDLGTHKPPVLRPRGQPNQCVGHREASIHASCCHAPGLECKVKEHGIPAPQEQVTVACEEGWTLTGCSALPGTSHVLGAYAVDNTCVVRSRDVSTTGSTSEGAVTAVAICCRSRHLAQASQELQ
Sequence (Q8NBP7 31-152 partner limits assumed): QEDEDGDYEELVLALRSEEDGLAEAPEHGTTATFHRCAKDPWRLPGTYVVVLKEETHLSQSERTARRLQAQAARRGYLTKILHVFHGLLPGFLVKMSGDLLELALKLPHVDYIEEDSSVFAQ
Square brackets hold non-standard residues; d marks the D form. Peptide text beside a SMILES is read from it. * marks the point of attachment. Propanoyl(3-(4-Cl-Ph)) = O=C(CCc1ccc(Cl)cc1)*; hArg = N=C(N)NCCCC[C@H](N)C(=O)O; X36 = CC(=O)c1ccc(OCCC(=O)*)cc1; X11 = O=C(CCCOc1ccc(Br)cc1)*; X25 = COc1cc(CCC(=O)*)ccc1O; X10 = Nc1cccc(CCC(=O)*)c1; X30 = O=C(CCc1cccc(O)c1)*; X35 = Nc1ccc(CCC(=O)*)cn1; X4 = Cc1ccc(OCCC(=O)*)cc1; X2 = CC(C)(C)CCCC(=O)*
endpoint label: IC50 (µM)

compound="CC[C@H](C)[C@H](NC(=O)[C@H](CCCCNC(=N)N)NC(=O)[C@@H](NC(=O)[C@H](CC(C)C)NC(=O)[C@H](CC(N)=O)NC(=O)[C@H](Cc1c[nH]c2ccccc12)NC(=O)CCc1ccc(N)nc1)C(C)C)C(=O)NCC(=O)N[C@@H](CC(C)C)C(=O)N[C@@H](CC(C)C)C(=O)N[C@@H](CCCNC(=N)N)C(N)=O [Compound 216] (X35-WNLV[hArg]IGLLR-NH2)" relation_sign== observed_result=6
compound="CC[C@H](C)[C@H](NC(=O)[C@H](CCCCNC(=N)N)NC(=O)[C@@H](NC(=O)[C@H](CC(C)C)NC(=O)[C@H](CC(N)=O)NC(=O)[C@H](Cc1c[nH]c2ccccc12)NC(=O)CCc1ccc(O)c(OC)c1)C(C)C)C(=O)NCC(=O)N[C@@H](CC(C)C)C(=O)N[C@@H](CC(C)C)C(=O)N[C@@H](CC(N)=O)C(N)=O [Compound 238] (X25-WNLV[hArg]IGLLN-NH2)" relation_sign== observed_result=7.7
compound="CC[C@H](C)[C@H](NC(=O)[C@H](CCCNC(=N)N)NC(=O)[C@@H](NC(=O)[C@H](CC(C)C)NC(=O)[C@H](CC(N)=O)NC(=O)[C@H](Cc1c[nH]c2ccccc12)NC(=O)CCCC(C)(C)C)C(C)C)C(=O)NCC(=O)N[C@@H](CC(C)C)C(=O)N[C@@H](CC(C)C)C(=O)N[C@@H](CCCNC(=N)N)C(N)=O [Compound 148] (X2-WNLVRIGLLR-NH2)" relation_sign== observed_result=19
compound="CC[C@H](C)[C@H](NC(=O)[C@H](CCCCNC(=N)N)NC(=O)[C@@H](NC(=O)[C@H](CC(C)C)NC(=O)[C@H](CC(N)=O)NC(=O)[C@H](Cc1c[nH]c2ccccc12)NC(=O)CNC(=O)[C@@H]1CCCN1C(=O)[C@H](Cc1ccc(O)cc1)NC(=O)[C@H](CO)NC(=O)[C@H](CC(=O)O)NC(C)=O)C(C)C)C(=O)NCC(=O)N[C@@H](CC(C)C)C(=O)N[C@@H](CC(C)C)C(=O)N[C@@H](CCCNC(=N)N)C(N)=O [Compound 230] (Ac-DSYPGWNLV[hArg]IGLLR-NH2)" relation_sign== observed_result=2.3
compound="CC[C@H](C)[C@H](NC(=O)[C@H](CCCCNC(=N)N)NC(=O)[C@@H](NC(=O)[C@H](CC(C)C)NC(=O)[C@H](CC(N)=O)NC(=O)[C@H](Cc1c[nH]c2ccccc12)NC(=O)CCc1ccc(Cl)cc1)C(C)C)C(=O)NCC(=O)N[C@@H](CC(C)C)C(=O)N[C@@H](CC(C)C)C(=O)N[C@@H](CCCNC(=N)N)C(N)=O [Compound 199] ({Propanoyl(3-(4-Cl-Ph))}-WNLV[hArg]IGLLR-NH2)" relation_sign== observed_result=0.98
compound="CC[C@H](C)[C@H](NC(=O)[C@H](CCCNC(=N)N)NC(=O)[C@@H](NC(=O)[C@H](CC(C)C)NC(=O)[C@H](CC(N)=O)NC(=O)[C@H](Cc1c[nH]c2ccccc12)NC(=O)CCc1cccc(N)c1)C(C)C)C(=O)NCC(=O)N[C@@H](CC(C)C)C(=O)N[C@H](C(=O)N[C@@H](CCCNC(=N)N)C(N)=O)[C@@H](C)O [Compound 164] (X10-WNLVRIGLTR-NH2)" relation_sign=≥ observed_result=50
compound="CC[C@H](C)[C@H](NC(=O)[C@H](CCCNC(=N)N)NC(=O)[C@@H](NC(=O)[C@H](CC(C)C)NC(=O)[C@H](CC(N)=O)NC(=O)[C@H](Cc1c[nH]c2ccccc12)NC(=O)CCCOc1ccc(Br)cc1)C(C)C)C(=O)NCC(=O)N[C@@H](CC(C)C)C(=O)N[C@H](C(=O)N[C@@H](CCCNC(=N)N)C(N)=O)[C@@H](C)O [Compound 182] (X11-WNLVRIGLTR-NH2)" relation_sign== observed_result=14
compound="CC[C@H](C)[C@H](NC(=O)[C@H](CCCCNC(=N)N)NC(=O)[C@@H](NC(=O)[C@H](CC(C)C)NC(=O)[C@H](CC(N)=O)NC(=O)[C@H](Cc1c[nH]c2ccccc12)NC(=O)CCOc1ccc(C)cc1)C(C)C)C(=O)NCC(=O)N[C@@H](CC(C)C)C(=O)N[C@@H](CC(C)C)C(=O)N[C@@H](CCCNC(=N)N)C(N)=O [Compound 211] (X4-WNLV[hArg]IGLLR-NH2)" relation_sign== observed_result=14
compound="CC[C@H](C)[C@H](NC(=O)[C@H](CCCCNC(=N)N)NC(=O)[C@@H](NC(=O)[C@H](CC(C)C)NC(=O)[C@H](CC(N)=O)NC(=O)[C@H](Cc1c[nH]c2ccccc12)NC(=O)CCOc1ccc(C(C)=O)cc1)C(C)C)C(=O)NCC(=O)N[C@@H](CC(C)C)C(=O)N[C@@H](CC(C)C)C(=O)N[C@@H](CCCNC(=N)N)C(N)=O [Compound 205] (X36-WNLV[hArg]IGLLR-NH2)" relation_sign== observed_result=2.8
compound="CC[C@H](C)[C@H](NC(=O)[C@H](CCCNC(=N)N)NC(=O)[C@@H](NC(=O)[C@H](CC(C)C)NC(=O)[C@H](CC(N)=O)NC(=O)[C@H](Cc1c[nH]c2ccccc12)NC(=O)CCc1cccc(O)c1)C(C)C)C(=O)NCC(=O)N[C@@H](CC(C)C)C(=O)N[C@H](C(=O)N[C@@H](CCCNC(=N)N)C(N)=O)[C@@H](C)O [Compound 168] (X30-WNLVRIGLTR-NH2)" relation_sign=≥ observed_result=50
